Tested on: MS2 coat protein
test-details: apparent KD of MS2 coat protein; designed switch direction (-1 OFF switch, 1 ON switch): -1; higher = weaker reporter binding
condition-details: input ligand: FMN 200 uM
Below is a list of entries, each paired with its recorded apparent KD of MS2 coat protein value.
property-measured: apparent KD of MS2 coat protein (nM)

{"columns": ["entry-sequence", "quantitative-readout"],
 "data": [
  ["GGGUGCAGGCUGAGGUCCUACAUGAGGAUCACCCAUGUGGUCCGGUGGCGUGGGUCGCCGGACUUGGCUCGUCUUGU [salish99_S_TOV1_R5_013] (Eterna round: R97, puzzle: Sensor, turn-off variant 1)", 39.2],
  ["AACCGUCGUCAGGAUAUUUGCCAGGAUUCUAGCGAAGAAGGGACGACAUGAGGAUCACCCAUGUUGGCCACUCG [EX6 B.26] (Eterna round: R97, puzzle: Exclusion 6)", 188],
  ["GGCUUACAUGAGGAUCACCCAUGUCAGGAUAUAGAACGAUGGCGGAACGCCAUCGCCGCUAGAAGGGACCGGUG [Eternabot (Original) Solution 25] (Eterna round: R97, puzzle: Exclusion 1)", 142],
  ["GAUUAACAUGAGGAUCACCCAUGUGAGGAUAUGGACUGGCUCACUUUUCGAUUCCCGUCUAGAAGGCACAUCUU [1986#10] (Eterna round: R97, puzzle: Exclusion 1)", 85.9],
  ["GCACGGAAUGUAGGAUAUUAGUGCGAUUAGCACUGAGAAGGACAUGAGGAUCACCCAUGUUCCUCAAUAAUAAACCUUCCGUGC [Eli exng1 - 044] (Eterna round: R96, puzzle: Exclusion NG 1)", 13]
]}

###

Test system: K4 kissing-loop RNA reporter
test-details: apparent KD of K4 kissing-loop reporter; higher = weaker reporter binding
condition-details: Eterna round: R107; input ligand: arginine 13.2 mM
property-measured: apparent KD of K4 kissing-loop reporter (µM)

{"columns": ["entry-sequence", "assayed-system", "property-measured", "quantitative-readout"],
 "data": [
  ["UGUAUAUGAUGUGAUACCAGUGAAGAGCCAGUGAUGUUGGUAGAACUGGUAUAUAAAUAACACCCUUGGCAGCACAAUCACGUAC [whbob_Ex_Theo_B_sa98]", "K4 kissing-loop RNA reporter", "apparent KD of K4 kissing-loop reporter", 0.188],
  ["AUUCAUGAGUGAUGUUCAUCGGCAGGAGAUACCAGCGAGUUAACCCGCCCUUGGCAGCUCAAGUAUAGGGACUCUGGCAUCGCCU [theeternabot_exclusion_KL_Theo_A_18]", "K4 kissing-loop RNA reporter", "apparent KD of K4 kissing-loop reporter", 0.374],
  ["UGUCAUUGGUCGGCCGCCACUUCAAAAGGUCAAAGACCAGAGUGAUGUUCUUCACGAAACGUGAGAAGGACCGGGACCGAUGACU [TrypBS 12 #SwitchBubble #K4Middle]", "K4 kissing-loop RNA reporter", "apparent KD of K4 kissing-loop reporter", 0.123],
  ["AGGCACGAGCAAGGAUAUCGAGUGGAGUGAUGUUCUGCCGACCCAGGACCGAAAGGUCCUGGGUCGCGAGAAGGUGCUCGUGCCU [#2 Same State - FMN A Attempt #8 (HarryS)]", "K4 kissing-loop RNA reporter", "apparent KD of K4 kissing-loop reporter", 0.785],
  ["UAUAUAUGAUGUGAUACCAGUGAAAAGCCAGUGAUGUUGGAAGAACUGGUAUAUAAAUAACACCCUUGGCAGCACAAUCACGUAU [theophylline b exclusion]", "K4 kissing-loop RNA reporter", "apparent KD of K4 kissing-loop reporter", 0.261]
]}

###

Test system: MS2 coat protein
test-details: apparent KD of MS2 coat protein; designed switch direction (-1 OFF switch, 1 ON switch): -1; higher = weaker reporter binding
condition-details: input ligand: none

{"columns": ["entry-sequence", "apparent KD of MS2 coat protein, nM"],
 "data": [
  ["GGUACUCAAAGAGUACCAAUACGAACAUGAGGAUCACCCAUGUAGGAUAUGCUACUCAAAGAGUAGCAGAAGGAUAUGAUCCCU [Far Half Aptamer v12] (Eterna round: R96, puzzle: Exclusion NG 3)", 126],
  ["CCGAAGGCAGGAUAUACAGGACAGACCCAUCAGAGCAGACUACAUGAGGAUCACCCAUGUAGAAGGGCCUUCAA [Eternabot (Original) Solution 26] (Eterna round: R97, puzzle: Exclusion 2)", 18.7],
  ["ACCGAAGCAGGAUAUACAUGAGGAUCACCCAUGUGCUUGCAUGGCGUGGGAAGUCAUAGUAGAAGGGCUACGCC [Onzaza] (Eterna round: R97, puzzle: Exclusion 3)", 22.4]
]}

###

Tested on: MS2 coat protein
test-details: apparent KD of MS2 coat protein; designed switch direction (-1 OFF switch, 1 ON switch): -1; higher = weaker reporter binding
condition-details: input ligand: microRNA oligo, concentration not stated
Give 1.0 when the value for apparent KD of MS2 coat protein is at least 0.05 µM. Give 0.0 when it is less.

{"columns": ["entry-sequence", "class"],
 "data": [
  ["UCUCGCGGGCAAGGAUAUCCUACGCUGUUCUGGCCCGUGUAUGUUACAUGAGGAUCACCCAUGUGGGAGAAGGUGCACCAGGGC [Design 40] (Eterna round: R96, puzzle: Exclusion NG 2)", 0.0],
  ["CAUGUCUGAGGAUAUCGUUUUUUGUACAUGAGGAUCACCCAUGUCCUAUUUUUUAUAUUACGAGAAGGCAGUGGAU [JR_E5_Sub091] (Eterna round: R96, puzzle: Exclusion 5)", 0.0],
  ["AGAAAUUCAAGAGGAUAUCACAUGAGGAUCACCCAUGUAUAGCGCGCUACGCUAGUCCUCGUAUUUGAGAAGGUUUGAUAAAAG [Mat - Exclusion NG 2 - Mod of JL - D77] (Eterna round: R96, puzzle: Exclusion NG 2)", 0.0],
  ["AACCUGAGGCAUAGCUUUAGGUUUACAUGAGGAUCACCCAUGUAGGAUAUGGUAGGCAUAGCUUACCAGAAGGACAUGAAAAUU [Mat - Exclusion NG 3 - Mod of JL - D30] (Eterna round: R96, puzzle: Exclusion NG 3)", 0.0],
  ["AAAAAUUACAUGAGGAUCACCCAUGUAGAGUGGGAAGAGAGAUAGGAUAUGAUGUGAGAAUCAUAUCAGAAGGAUCGAGACUCA [AK ExNG3-2.1] (Eterna round: R96, puzzle: Exclusion NG 3)", 1.0]
]}

###

Tested on: K4 kissing-loop RNA reporter;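 also: bound reporter read as fluorescence of individual clusters on recovered sequencing chips by microscopy, with normalized cluster intensities fitted with a binding model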
test-details: apparent KD of K4 kissing-loop reporter; higher = weaker reporter binding
condition-details: Eterna round: R107; input ligand: none
# key: entry, value: apparent KD of K4 kissing-loop reporter
property-measured: apparent KD of K4 kissing-loop reporter (nM)

{"columns": ["entry-sequence", "assayed-system", "property-measured", "quantitative-readout"],
 "data": [
  ["UGAUAGGACAGAAGGAGCGGUAGUGAUGUUACCAAAAGGAUAAGGUGUCAAAAGACACCCUGCCAGGUAGGUCGCUGUCCUAUCU", "K4 kissing-loop RNA reporter", "apparent KD of K4 kissing-loop reporter", 107],
  ["UGUAUGUGAUUUGAUACCAGACCAUCUUGUGAAUGAUGAGUGAUGUUUAUUAUGGUUUGGGUCCCUUGGCAGCAAAUCGCAUACU [KL-SSTheoB25]", "K4 kissing-loop RNA reporter", "apparent KD of K4 kissing-loop reporter", 976],
  ["UAGUCCUAGUGAUCGUUAUCAAGUGGUGGGCGAGGACCGGUACGGCCGCCACUCGACUAUGCAGUGAUGUUGCAAUCCGGACAAU [Exclusion - Tryptophan A (Freestyle 14)]", "K4 kissing-loop RNA reporter", "apparent KD of K4 kissing-loop reporter", 222],
  ["GGAUAGGACAGAGGAUAUGGUAGUGAUGUUACCACGAGACAAAGUCUCGAAAAGCUACAAAGUAGCCCAGAAGGCUGUCCUAUCG [FmnBX 25 #SwitchBubble #StaticStem #Palindromic]", "K4 kissing-loop RNA reporter", "apparent KD of K4 kissing-loop reporter", 130],
  ["UACAAUUUGGCGGCCGCCACUGACCAUAGCCUUCGAUGGCCAGUGAUGUUGGCCUCUGGCUCUAACAGGACCGGGCCAAAUUAUG [Maeste]", "K4 kissing-loop RNA reporter", "apparent KD of K4 kissing-loop reporter", 271],
  ["UGUGCCAAAUGUGAUACCAGCUUCCUGCAGUGAUGUUGCAUACGAGUGAUGUUCGUCCGAGGCCCUUGGCAGCGCAGUCGUUUGA [Same State Theophylline B GF 27]", "K4 kissing-loop RNA reporter", "apparent KD of K4 kissing-loop reporter", 528],
  ["UGUGAACAAAAGUAGAGUGGACCACUAUAGCGAGGACCGGUACGGCCGCCACUCGUGUAUGAAUUCAGUGAUGUUGAAAAGAGCU [whbob_EX_Tryp_A_t11]", "K4 kissing-loop RNA reporter", "apparent KD of K4 kissing-loop reporter", 138],
  ["CGGAUGUAGUGAUGUUAUAUUAGAUGUAGACGAGGACCGGUACGGCCGCCACUCGAAACGGCUACUAGCGCGUUGCGAGGUGUGC [ExTryptoA.CJ]", "K4 kissing-loop RNA reporter", "apparent KD of K4 kissing-loop reporter", 686],
  ["UGUCUUCAGUGAUGUUGAUGACAACACUUAAAGGAUAUGCGAGAGAGCAGAAGGUUAAACAACGCGCAAAUCAAGGAGGGUCUAG [theeternabot_exclusion_KL_FMN_A_30]", "K4 kissing-loop RNA reporter", "apparent KD of K4 kissing-loop reporter", 178],
  ["CAUGGAGUGAUGCUCCAUGAUCGGGCUUGGCAGGAUAUGGGAUCUUCCAGAAGGGCCGAUCCCAGCGAGUGAUGUUCGCUGGUCU [Exclusion FMN A GF 27]", "K4 kissing-loop RNA reporter", "apparent KD of K4 kissing-loop reporter", 113],
  ["GCGGGCCAGACGGCCGCCACUCCGGGCAGUGAUGUUGCGAAAAUUCUACUAGAGUGAUGUUCUACGAGGACCGGGUCGGAACGCG [Exclusion Tryptophan B Gf 12]", "K4 kissing-loop RNA reporter", "apparent KD of K4 kissing-loop reporter", 538],
  ["CUGACCAACAGCGAUACCAGCGUGGAGUGAUGUUCCCUGGUCCGGGCUGAUGUUCCCUUGCGCCCUUGGCAGCGCAGAAGCAGGA [Exclusion Theophylline B GF 12]", "K4 kissing-loop RNA reporter", "apparent KD of K4 kissing-loop reporter", 351],
  ["CUUCGUAAGGGCCCAGUGAUGUUGGGCACUCGAGGACCGGUACGGCCGCCACUCGCUCCCUAAGUCGCGCGCGUGGGCCACCGCC [Rezariatra]", "K4 kissing-loop RNA reporter", "apparent KD of K4 kissing-loop reporter", 116],
  ["GUAGGAUGGUGCGAUACCAGACCUGCAGUGAUGUUGCGCCAUAGUGAGUGAUGUUCACCGGUCCCUUGGCAGCGCGUCCAUAAAG [Same State Theophylline B GF 17]", "K4 kissing-loop RNA reporter", "apparent KD of K4 kissing-loop reporter", 1250],
  ["CGAGUGAUGUUCGUUUUUUACUCUGUUUGACAGGAUAUGCGGAAACGCAGAAGGGUCACCUUUGAGUUAAACGGAGUUAUUUUUU [Ex FMN A 20]", "K4 kissing-loop RNA reporter", "apparent KD of K4 kissing-loop reporter", 366],
  ["UUCUGCAUCUCGGCCGCCACUCACUAGUGAUGUUAGUAAGGAGCGACUAGACAUGUCCCGUUGUUGAGGACCGGGAGAGGCUCUU [#14 K4 Tryptophan B Exclusion]", "K4 kissing-loop RNA reporter", "apparent KD of K4 kissing-loop reporter", 164],
  ["UUUAACGAGUGAUGUUCGAAAAGUAAUGGUUAGGAUAUCGUUUUUUCGAGAAGGAACCUCGAAGUGAUACGAAAGUAUCGCUUCG [FMN A 2]", "K4 kissing-loop RNA reporter", "apparent KD of K4 kissing-loop reporter", 264],
  ["AAGUCAUAUAGAAGGAGCGUGUUUUUUAAUUUGUUUUCAUGAUCGAGUGAUGUUCGAUAUACACAGGUAGGUCGCUGUAUGAUAA [hbob_SS_Arginine_B_2t143]", "K4 kissing-loop RNA reporter", "apparent KD of K4 kissing-loop reporter", 130],
  ["UGUCAUGGAAACAUGAACGUUGAUGUUCGACGAGGACCGGUACGGCCGCCACUCGAGUAAUAGUCAGUGAUGUUGACUUGUCUAA [KL-SSTryp-A form1 sub3]", "K4 kissing-loop RNA reporter", "apparent KD of K4 kissing-loop reporter", 91.8],
  ["UCCUGCAAUCUACCACGAAAGUGGAUGGAUACCAGAGUCGAAAGACUCCCUUGGCAGCCAGUGAUGUUGGAGCAGGUAAAAUAAA", "K4 kissing-loop RNA reporter", "apparent KD of K4 kissing-loop reporter", 638],
  ["UUGGCAGUGAUGUUGCCAGAGUUCACCGAAGGAGCGGGUGAAAACCCAGGUAGGUCGCGGUAGCGGAGUGAUUCUCCGCGAGGGC [Same State Arginine A GF 22]", "K4 kissing-loop RNA reporter", "apparent KD of K4 kissing-loop reporter", 86.2],
  ["UAUUAAUUGACGGCCGCCACUAUGGUGAUUUAUUUGUUUGAGUGAUGUUUUGAUGUUUGAUUUUGUAGGACCGGGUUAUGUGUUA [pokcmullin]", "K4 kissing-loop RNA reporter", "apparent KD of K4 kissing-loop reporter", 853],
  ["UUUUGGUACUGAGGAUAUUCGAAGAAAUAUAGUGAUGUUAUAUAAGGAGGAGGAGGGAGGGAGGAAGGAGAAGGCAGAAGAGGAG [ExFMNB.G]", "K4 kissing-loop RNA reporter", "apparent KD of K4 kissing-loop reporter", 235]
]}
